Reference source for all entries: ChEMBL document CHEMBL2218924

- ASSAY_TARGET: Fibroblast growth factor receptor 1 (Homo sapiens) (UniProt P11362)
- Sequence (P11362 22-822 limits assumed): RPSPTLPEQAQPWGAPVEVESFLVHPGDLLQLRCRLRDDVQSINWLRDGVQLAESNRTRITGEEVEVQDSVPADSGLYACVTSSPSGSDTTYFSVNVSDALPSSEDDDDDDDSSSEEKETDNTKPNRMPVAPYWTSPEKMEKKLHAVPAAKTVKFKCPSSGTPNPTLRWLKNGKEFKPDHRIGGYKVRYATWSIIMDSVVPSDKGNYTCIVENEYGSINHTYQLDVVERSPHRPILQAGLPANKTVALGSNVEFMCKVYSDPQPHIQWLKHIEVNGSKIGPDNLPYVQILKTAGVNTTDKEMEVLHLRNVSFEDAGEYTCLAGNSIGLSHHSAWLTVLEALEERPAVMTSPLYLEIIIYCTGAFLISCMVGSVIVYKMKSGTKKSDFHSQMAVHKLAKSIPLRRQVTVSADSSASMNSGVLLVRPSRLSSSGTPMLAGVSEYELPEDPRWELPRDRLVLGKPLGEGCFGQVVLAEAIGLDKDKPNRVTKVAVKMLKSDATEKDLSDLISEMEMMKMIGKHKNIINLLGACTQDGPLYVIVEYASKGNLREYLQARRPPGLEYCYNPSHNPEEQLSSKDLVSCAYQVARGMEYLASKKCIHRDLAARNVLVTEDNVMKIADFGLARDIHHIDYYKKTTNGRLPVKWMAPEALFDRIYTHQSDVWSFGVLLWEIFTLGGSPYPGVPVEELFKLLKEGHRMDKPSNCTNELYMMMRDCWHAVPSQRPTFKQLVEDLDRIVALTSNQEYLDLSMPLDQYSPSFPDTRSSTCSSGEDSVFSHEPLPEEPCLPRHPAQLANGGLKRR
- MEASUREMENT_CONTEXT: at 10 µM
A collection of compounds and their measured residual activity

{"columns": ["SMILES", "residual activity"],
 "data": [
  ["CC#CC(=O)Nc1cc2c(Nc3ccc(F)c(Cl)c3)ncnc2cn1", "80%"],
  ["Cc1ccc(S(=O)(=O)/C=C/C#N)cc1", "82%"],
  ["Nc1n[nH]c2nnc(-c3c(-c4ccccc4)nn4ccccc34)cc12", "61%"],
  ["Nc1ccc2ncnc(NCCc3ccc(Oc4ccccc4)cc3)c2c1", "28%"],
  ["N#Cc1cnc2cnc(NCc3cccnc3)cc2c1Nc1ccc(F)c(Cl)c1", "12%"],
  ["CCOc1cc2ncnc(Nc3cccc(Br)c3)c2cc1OCC", "18%"],
  ["CNc1cc2c(Nc3cccc(Br)c3)ncnc2cn1", "66%"],
  ["N#C/C(=C(\\N)Sc1ccc(N)cc1)c1ccccc1C(F)(F)F", "83%"]
]}

###

Listing: residual activity of selected compounds
- ASSAY_TARGET: Aurora kinase C (Homo sapiens) (UniProt Q9UQB9)
- Sequence (Q9UQB9 whole entry): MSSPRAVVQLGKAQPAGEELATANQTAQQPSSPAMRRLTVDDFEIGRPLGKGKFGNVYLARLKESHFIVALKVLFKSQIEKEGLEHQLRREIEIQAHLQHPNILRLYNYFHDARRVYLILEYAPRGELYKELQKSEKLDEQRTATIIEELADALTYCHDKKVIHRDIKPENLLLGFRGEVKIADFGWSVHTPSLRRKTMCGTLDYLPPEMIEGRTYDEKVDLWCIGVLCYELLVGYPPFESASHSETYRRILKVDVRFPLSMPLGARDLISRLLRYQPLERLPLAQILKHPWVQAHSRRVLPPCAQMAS
- MEASUREMENT_CONTEXT: at 1 µM

{"columns": ["SMILES", "residual activity (%)"],
 "data": [
  ["CN(C)c1ccc(/C=C2\\C(=O)Nc3ccccc32)cc1", 88],
  ["c1ccc(-c2n[nH]cc2-c2ccnc3ccccc23)nc1", 100],
  ["CCN(CC)CCCCN1c2ccccc2Oc2ccc(Cl)cc21", 108],
  ["Cc1ccc(NC2=CC(=O)c3sc(C)nc3C2=O)cc1", 85],
  ["O=c1cc(-c2cccc3c2Sc2ccccc2S3)oc(N2CCOCC2)c1", 102],
  ["Nc1nc(Nc2ccc(S(N)(=O)=O)cc2)nn1C(=S)Nc1c(F)cccc1F", -2],
  ["O=[N+]([O-])c1ccc(-c2nc(-c3ccc(F)cc3)c(-c3ccncc3)[nH]2)cc1", 107],
  ["Nc1n[nH]c2nnc(-c3c(-c4ccccc4)nn4ccccc34)cc12", 83],
  ["Oc1ccc(-c2nc(-c3ccc(F)cc3)c(-c3ccncc3)[nH]2)cc1", 113],
  ["CC(=O)c1ccc(N2CCOCC2)cc1O", 106],
  ["CCC(=O)Nc1ccc2ncnc(Nc3cccc(Br)c3)c2c1", 94],
  ["O=C1Nc2cc(Br)ccc2/C1=C1/Nc2ccccc2/C1=N\\O", 74],
  ["N#Cc1cnc2cnc(NCc3cccnc3)cc2c1Nc1ccc(F)c(Cl)c1", 71],
  ["O=C1NC(=O)c2c1c1c3ccccc3[nH]c1c1[nH]c3cc(Br)ccc3c21", 89],
  ["Cc1cc2ncc(-c3ccccc3)nc2cc1C", 104],
  ["CNc1cc2c(Nc3cccc(Br)c3)ncnc2cn1", 85],
  ["O=C(Nc1cccc(Nc2nccc(Nc3cccc(C(F)(F)F)c3)n2)c1)C1CC1", 69],
  ["O=C1NC(=O)/C(=C/c2ccc3c(c2)OC(F)(F)O3)S1", 110],
  ["N#CCCc1ccc2c(c1)-c1[nH]c3ccc([N+](=O)[O-])cc3c1CC(=O)N2", 63],
  ["Cn1cnc2cc3c(Nc4cccc(Br)c4)ncnc3cc21", 80],
  ["CC(C)n1cnc2c(NCc3ccccc3)nc(NCCCO)nc21", 95],
  ["O=C1Nc2ccc(Br)cc2/C1=C\\c1cc2c([nH]1)CCCC2", 82]
]}

###

- ASSAY_TARGET: Serine/threonine-protein kinase N2 (Homo sapiens) (UniProt Q16513)
- Sequence (Q16513 whole entry, looked up): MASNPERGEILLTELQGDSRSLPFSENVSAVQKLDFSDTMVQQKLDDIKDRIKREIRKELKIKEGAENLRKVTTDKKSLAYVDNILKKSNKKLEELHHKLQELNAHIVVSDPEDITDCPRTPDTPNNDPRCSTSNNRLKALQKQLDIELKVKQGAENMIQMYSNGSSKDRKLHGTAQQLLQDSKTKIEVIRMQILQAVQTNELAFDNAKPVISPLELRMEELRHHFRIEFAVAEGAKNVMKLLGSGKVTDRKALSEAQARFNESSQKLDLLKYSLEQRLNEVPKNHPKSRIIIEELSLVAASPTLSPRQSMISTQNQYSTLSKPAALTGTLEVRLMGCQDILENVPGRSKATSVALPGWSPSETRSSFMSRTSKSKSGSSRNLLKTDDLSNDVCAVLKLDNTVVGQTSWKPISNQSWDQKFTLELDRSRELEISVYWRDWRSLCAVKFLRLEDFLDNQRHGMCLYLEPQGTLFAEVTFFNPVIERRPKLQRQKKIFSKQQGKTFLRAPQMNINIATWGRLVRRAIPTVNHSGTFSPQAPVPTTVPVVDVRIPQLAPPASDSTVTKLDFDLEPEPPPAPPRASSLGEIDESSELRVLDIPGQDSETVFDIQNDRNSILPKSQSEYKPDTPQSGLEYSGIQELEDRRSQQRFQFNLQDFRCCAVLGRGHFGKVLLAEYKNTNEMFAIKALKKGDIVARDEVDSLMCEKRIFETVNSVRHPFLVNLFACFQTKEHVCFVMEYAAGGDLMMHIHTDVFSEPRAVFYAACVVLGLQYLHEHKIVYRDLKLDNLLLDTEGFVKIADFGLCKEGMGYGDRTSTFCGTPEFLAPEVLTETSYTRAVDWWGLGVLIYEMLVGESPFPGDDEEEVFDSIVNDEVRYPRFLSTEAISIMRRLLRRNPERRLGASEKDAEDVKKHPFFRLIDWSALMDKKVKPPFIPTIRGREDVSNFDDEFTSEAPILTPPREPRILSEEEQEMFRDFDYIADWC
- MEASUREMENT_CONTEXT: at 10 µM

{"columns": ["SMILES", "ASSAY_TARGET", "residual activity, %"],
 "data": [
  ["Cc1nc2cc3nc(-c4cccs4)cnc3cc2n1C", "Serine/threonine-protein kinase N2 (Homo sapiens) (UniProt Q16513)", 100],
  ["Nc1cccc(-c2cc3c(Oc4cccc(O)c4)ncnc3[nH]2)c1", "Serine/threonine-protein kinase N2 (Homo sapiens) (UniProt Q16513)", 67],
  ["CN(C)CCCn1cc(C2=C(c3c[nH]c4ccccc34)C(=O)NC2=O)c2ccccc21", "Serine/threonine-protein kinase N2 (Homo sapiens) (UniProt Q16513)", 6],
  ["COc1cc2ncnc(Nc3ccc(O)c(Br)c3)c2cc1OC", "Serine/threonine-protein kinase N2 (Homo sapiens) (UniProt Q16513)", 61],
  ["COc1cccc(-c2cc(=O)c3ccccc3o2)c1N", "Serine/threonine-protein kinase N2 (Homo sapiens) (UniProt Q16513)", 90],
  ["Oc1n[nH]c2nnc(-c3c(-c4ccccc4)nn4ccccc34)cc12", "Serine/threonine-protein kinase N2 (Homo sapiens) (UniProt Q16513)", 86],
  ["Nc1ccc2ncnc(NCCc3ccc(Oc4ccccc4)cc3)c2c1", "Serine/threonine-protein kinase N2 (Homo sapiens) (UniProt Q16513)", 78],
  ["Cc1cc2ncc(-c3ccccc3)nc2cc1C", "Serine/threonine-protein kinase N2 (Homo sapiens) (UniProt Q16513)", 107],
  ["CCN(CC)CCCCN1c2ccccc2Oc2ccc(Cl)cc21", "Serine/threonine-protein kinase N2 (Homo sapiens) (UniProt Q16513)", 124],
  ["Oc1ccc(Nc2nc(-c3ccc(Cl)cc3)cs2)cc1", "Serine/threonine-protein kinase N2 (Homo sapiens) (UniProt Q16513)", 107],
  ["CCC(=O)Nc1ccc2ncnc(Nc3cccc(Br)c3)c2c1", "Serine/threonine-protein kinase N2 (Homo sapiens) (UniProt Q16513)", 99],
  ["Cc1cc(Nc2nc(-c3ccccc3)nc3ccccc23)n[nH]1", "Serine/threonine-protein kinase N2 (Homo sapiens) (UniProt Q16513)", 58],
  ["N#Cc1cnc2cnc(NCc3cccnc3)cc2c1Nc1ccc(F)c(Cl)c1", "Serine/threonine-protein kinase N2 (Homo sapiens) (UniProt Q16513)", 3],
  ["Ic1cccc(CSc2nnc(-c3ccncc3)o2)c1", "Serine/threonine-protein kinase N2 (Homo sapiens) (UniProt Q16513)", 70],
  ["O=C1Nc2cc(Br)ccc2/C1=C1/Nc2ccccc2/C1=N\\O", "Serine/threonine-protein kinase N2 (Homo sapiens) (UniProt Q16513)", 92],
  ["Oc1c2ccccc2c2c3c(cccc13)N=N2", "Serine/threonine-protein kinase N2 (Homo sapiens) (UniProt Q16513)", 32],
  ["CC(C)n1cnc2/c(=N/c3cccc(Cl)c3)nc(NCCO)[nH]c21", "Serine/threonine-protein kinase N2 (Homo sapiens) (UniProt Q16513)", 62],
  ["N#CC(C#N)=C(N)/C(C#N)=C/c1ccc(O)cc1", "Serine/threonine-protein kinase N2 (Homo sapiens) (UniProt Q16513)", 117],
  ["O=C1Nc2ccc(Br)cc2/C1=C\\c1cc2c([nH]1)CCCC2", "Serine/threonine-protein kinase N2 (Homo sapiens) (UniProt Q16513)", 112],
  ["COc1ccc(OC)c2c(=S)c3ccccc3[nH]c12", "Serine/threonine-protein kinase N2 (Homo sapiens) (UniProt Q16513)", 88],
  ["Oc1ccc(-c2nc(-c3ccc(F)cc3)c(-c3ccncc3)[nH]2)cc1", "Serine/threonine-protein kinase N2 (Homo sapiens) (UniProt Q16513)", 47]
]}

###

- ASSAY_TARGET: RAC-gamma serine/threonine-protein kinase (Homo sapiens)
- MEASUREMENT_CONTEXT: at 1 µM
Here, each record is paired with measured residual activity data.

{"columns": ["SMILES", "residual activity"],
 "data": [
  ["O=C1NC(=O)/C(=C\\c2ccc3nccnc3c2)S1", "98%"],
  ["COc1ccc(C(=O)Nc2sc3c(c2C(N)=O)CCCC3)cc1OC", "102%"],
  ["N#C/C(=C(\\N)Sc1ccc(N)cc1)c1ccccc1C(F)(F)F", "96%"],
  ["c1ccc2c(-c3ccncc3)c[nH]c2c1", "89%"],
  ["Cc1ccc(NC2=CC(=O)c3sc(C)nc3C2=O)cc1", "91%"],
  ["CN(C)CCCn1cc(C2=C(c3c[nH]c4ccccc34)C(=O)NC2=O)c2ccccc21", "30%"]
]}

###

- ASSAY_TARGET: Fibroblast growth factor receptor 2 (Homo sapiens) (UniProt P21802)
- Sequence (P21802 22-821 limits assumed): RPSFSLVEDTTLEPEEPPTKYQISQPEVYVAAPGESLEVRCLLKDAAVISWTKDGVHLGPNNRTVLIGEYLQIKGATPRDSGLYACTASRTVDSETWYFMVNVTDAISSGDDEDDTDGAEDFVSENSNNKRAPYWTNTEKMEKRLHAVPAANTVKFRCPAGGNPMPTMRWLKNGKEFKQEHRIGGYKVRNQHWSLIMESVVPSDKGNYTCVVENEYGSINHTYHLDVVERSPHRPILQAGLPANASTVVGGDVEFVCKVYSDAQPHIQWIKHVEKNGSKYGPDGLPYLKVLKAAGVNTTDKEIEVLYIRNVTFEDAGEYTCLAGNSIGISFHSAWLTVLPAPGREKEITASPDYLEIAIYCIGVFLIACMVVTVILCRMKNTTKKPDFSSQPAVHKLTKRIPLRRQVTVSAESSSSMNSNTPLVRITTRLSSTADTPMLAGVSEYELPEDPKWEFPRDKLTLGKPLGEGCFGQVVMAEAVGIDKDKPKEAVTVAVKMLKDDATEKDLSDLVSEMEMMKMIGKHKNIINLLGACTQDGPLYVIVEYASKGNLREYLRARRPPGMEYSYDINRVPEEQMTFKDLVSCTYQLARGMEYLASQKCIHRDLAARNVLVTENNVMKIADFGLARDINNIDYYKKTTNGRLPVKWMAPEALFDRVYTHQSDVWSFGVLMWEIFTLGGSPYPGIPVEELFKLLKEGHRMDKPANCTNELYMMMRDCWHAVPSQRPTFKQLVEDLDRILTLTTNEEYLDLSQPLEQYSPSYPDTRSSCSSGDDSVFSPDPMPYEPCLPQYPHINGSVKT
- MEASUREMENT_CONTEXT: at 10 µM

{"columns": ["SMILES", "residual activity (%)"],
 "data": [
  ["NC(=O)c1ccc2[nH]c(-c3ccc(Oc4ccc(Cl)cc4)cc3)nc2c1", 103],
  ["O=C1NC(=O)c2cc(Nc3ccc(F)cc3)c(Nc3ccc(F)cc3)cc21", 82],
  ["Oc1ccc(Nc2nc(-c3ccc(Cl)cc3)cs2)cc1", 93],
  ["CCOc1cc2ncnc(Nc3cccc(Br)c3)c2cc1OCC", 88],
  ["Nc1n[nH]c2nnc(-c3c(-c4ccccc4)nn4ccccc34)cc12", 83],
  ["c1ccc(-c2n[nH]cc2-c2ccnc3ccccc23)nc1", 97]
]}
